The reported measurements were obtained from ChEMBL document CHEMBL6120976.

Tested on: OATP1B1
Experiment: Cytotoxicity against sodium butyrate-treated HEK293 cells transfected with OATP1B1 incubated for 48 hrs by absorbance based assay
Type: toxicity, cell-based
Conditions: human
Numbered stars: 1 amine (or outer) side, 2 acyl side, 3 side chain; on linkers, the order of the positions; unused ones are H or OH. Bridge positions count the residues as written; N and C are the ends. Square brackets hold non-standard residues; d marks the D form. Peptide text beside a SMILES is read from it. Adda = CO[C@@H](Cc1ccccc1)[C@@H](C)/C=C(C)/C=C/[C@H](N[*:1])[C@H](C)C(=O)[*:2]; dAsp(3S-Me) = C[C@H](C(=O)[*:3])[C@@H](N[*:1])C(=O)[*:2]; d(γGlu) = O=C(O)[C@@H](CCC(=O)[*:2])N[*:1]; NMeDha = C=C(NC)C(=O)O
readout type: EC50 at 48 h (nM)
Numeric only. Scale: nM

Consider the compound shown here: C=C1C(=O)N[C@H](C)C(=O)N[C@@H](CC(C)C)C(=O)N[C@@H](C(=O)O)[C@H](C)C(=O)N[C@@H](CCCNC(=N)N)C(=O)N[C@@H](/C=C/C(C)=C/[C@H](C)[C@H](Cc2ccccc2)OC)[C@H](C)C(=O)N[C@@H](C(=O)O)CCC(=O)N1C [MICROCYSTIN-LR] (R[Adda][d(γGlu)][NMeDha][dA]L[dAsp(3S-Me)]-OH; lactam N-7) What is its recorded EC50 at 48 h?
8.8
